Test system: LOX IMVI
PROCEDURE TEXT: NCI tumour cell line growth inhibition, 48 h
Calls of active or inactive are those of the source. Cut-off read from the data, not from the text of the source: active = GI50 up to about 1.1 µM and inactive = higher.
PROPERTY MEASURED: GI50

>  <COMPOUND>
CCOC(=O)c1nc2ccc(C(F)(F)F)cc2nc1Oc1ccc(C(=O)OC)cc1

>  <OBSERVED MEASUREMENT>
> 100 µM (inactive)

$$$$
>  <COMPOUND>
CN1CN(c2ccccc2)C2(CCN(Cc3nc4ccccc4s3)CC2)C1=O

>  <OBSERVED MEASUREMENT>
17.3 µM (inactive)

$$$$
>  <COMPOUND>
CC(C)Oc1c(O)c2c3c(oc(=O)n3C=CC2c2ccccc2F)c1OC(C)C (stereo not given)

>  <OBSERVED MEASUREMENT>
17.5 µM (inactive)

$$$$

### Prompt Give the reported GI50 for this compound. "[O-]/[N+](=N/c1ncc(-c2ccccc2)cn1)c1ncc(-c2ccccc2)cn1"
### Response 43.4 µM (inactive)

### Prompt Give the reported GI50 for this compound. O=C(O)CCS/C(=C\C(SCCC(=O)O)c1ccc(Cl)cc1)c1ccc(Cl)cc1 (stereo not given)
### Response 25.5 µM (inactive)
